- ASSAY_NAME: recombinant barcode read abundance after kanamycin selection (control-corrected) (log10(CPM+1)); higher = more efficient recombination; sequences stand for … in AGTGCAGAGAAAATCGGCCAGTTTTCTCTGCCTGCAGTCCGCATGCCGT…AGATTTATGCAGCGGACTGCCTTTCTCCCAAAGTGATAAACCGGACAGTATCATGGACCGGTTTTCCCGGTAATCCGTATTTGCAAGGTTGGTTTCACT; site = the 11-nt target;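 note: IS621 recombinase and bridge RNA in Escherichia coli cells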
Would you mind classing the entries by recombinant barcode read abundance (log10)? Ranges: lower bin (below 0.1), middle bin (0.1 to below 0.8), upper bin (0.8 or more)

Consider the following illustrative entries.
ORDERED_RESIDUES | CATEGORY
GGTCCTACTTGGGTTCTAACCTGTTGCCT (site GTTCCTACTAG) | middle bin
TGTAGTCCTTGGGTTCTAACCTGTTGCCT (site TGTAGTCCTAA) | lower bin
GGCGTCCCTTGGGTTCTAACCTGTTGCCT (site GGCCTCCCTAG) | middle bin
GTATCAACTTGGGTTCTAACCTGTTGCCT (site GTATCATCTAG) | lower bin
AGCTCCGCTTGGGTTCTAACCTGTTGCCT (site TGCTCGGCTAG) | middle bin

Which recombinant barcode read abundance (log10) category applies to ACAGTTACTTGGGTTCTAACCTGTTGCAT (site ACAGTTACTAT) here?
upper bin

Textbook exercise: identify the category of the sequence given here, TTCCGAGCTTGGGTTCTAACCTGTTGCGG (site TTCCGAGCTCC) , according to its measured value.
upper bin

Which recombinant barcode read abundance (log10) category applies to TGAAATGCTTGGGTTCTAACCTGTTGCCT (site TGAAATGCTAG) here?
middle bin

Determine which band this sequence sits in: TTGCCAACTTGGGTTCTAACCTGTTGCCT (site TTGCGAACTAG)
lower bin

Note: place this sequence into its band. Item: ACCTTAGCTTGGGTTCTAACCTGTTGCTT (site ACCTTAGCTAA)
middle bin

In plain terms, what class is TTGGGTTCTTGGGTTCTAACCTGTTGCCT (site TTGGGTTCTAG) ?
middle bin

Quick check: band for CTGGTCACTTGGGTTCTAACCTGTTGCGG (site CTGGTCACTCC)
upper bin

Class label required: GGACTCACTTGGGTTCTAACCTGTTGCCT (site GGACTCACTAG)
upper bin

Into which category would you place GAAAGTTCTTGGGTTCTAACCTGTTGCCT (site GCAAGTTCTAG) ?
lower bin

Class label required: CTACCGTCTTGGGTTCTAACCTGTTGCGG (site CTACCGTCTCC)
upper bin

Which bin, given its recombinant barcode read abundance (log10), does TAAGTACCTTGGGTTCTAACCTGTTGCCT (site GAAGTACCTAG) occupy?
lower bin

Which bin should I file GCGCTTACTTGGGTTCTAACCTGTTGCCT (site GCGCTTACTAG) under?
middle bin

Each sequence maps to one class by recombinant barcode read abundance (log10). Which class for CAGTCTACTTGGGTTCTAACCTGTTGCCT (site CAGTCTACTAG) ?
middle bin

Which band does CTCATGTCTTGGGTTCTAACCTGTTGCTT (site CTCATGTCTAA) fall in?
upper bin

Kindly identify the class of TATTATACTTGGGTTCTAACCTGTTGCGT (site TATTATACTAC) .
middle bin

Class label required: GTACAGCCTTGGGTTCTAACCTGTTGCCT (site GTACGGCCTAG)
lower bin
